# MEASUREMENT TARGET: full-length recombinant human FYN A (Homo sapiens (Human))
# Sequence (P06241 whole entry): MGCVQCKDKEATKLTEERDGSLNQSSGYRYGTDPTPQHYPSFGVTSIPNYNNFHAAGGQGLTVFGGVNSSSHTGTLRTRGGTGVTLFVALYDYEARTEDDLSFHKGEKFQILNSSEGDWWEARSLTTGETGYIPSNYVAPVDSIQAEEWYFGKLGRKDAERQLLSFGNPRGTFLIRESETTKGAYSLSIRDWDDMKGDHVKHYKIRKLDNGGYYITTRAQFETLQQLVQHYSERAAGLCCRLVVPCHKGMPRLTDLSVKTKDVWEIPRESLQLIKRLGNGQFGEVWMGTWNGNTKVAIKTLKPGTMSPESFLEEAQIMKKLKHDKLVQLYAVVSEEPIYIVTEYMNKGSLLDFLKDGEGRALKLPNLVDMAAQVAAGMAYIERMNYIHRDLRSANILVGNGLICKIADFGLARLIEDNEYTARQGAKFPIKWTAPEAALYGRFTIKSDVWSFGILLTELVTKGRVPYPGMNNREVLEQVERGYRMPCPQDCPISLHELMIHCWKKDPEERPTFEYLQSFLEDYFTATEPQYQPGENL
# PROTOCOL NOTES: ADP-Glo Kinase Assay of FYN kinase inhibition
# Format: biochemical
# DETAILS: primary screen, initial compounds
Please provide measured log10 of IC50 for the entries that follow.
All values: log10 IC50 [nM].

// worked examples, log10 of IC50 included
COc1cc(-c2cnc3ccc(-c4ccc(OC)c(OC)c4)nn23)ccc1O [Compound 356]; 1.65
COc1cccc(-n2c(N)c(C(N)=O)c3nc4ccccc4nc32)c1 [Compound 577]; 3.07
Nc1ccc(-c2cnc3ccc(NC4CCOCC4)nn23)cc1 [229_0242_0333]; 3.50
COc1cc(-c2cnc3ccc(-c4cccc(OC(F)(F)F)c4)nn23)ccc1O [Compound 462]; 2.92
OCc1ccc(-c2cn3c(-c4ccsc4)cnc3cn2)cc1 [388_0074_0285]; 3.37

Provide reported log10 of IC50 for each item, in the same order as listed.
1. COc1ccccc1-c1cc2c(Nc3ccc(NC(C)=O)cc3)nccc2[nH]1 [Compound 597]
2. CN(C)CCNC(=O)c1ccc(-c2cn3c(-c4ccncc4)cnc3cn2)cc1 [388_0069_0327]
3. COc1cc(-c2cnc3ccc(-c4cccc(F)c4)nn23)ccc1O [Compound 472]
4. CC(C)[C@@H](CO)Nc1ccc2ncc(-c3cccc(N)c3)n2n1 [229_0254_0005]
5. COc1cc(-c2cnc3cnc(-c4cccc(C(=O)NCCO)c4)cn23)ccc1O [388_0314_0192]
6. CC(=O)Nc1cccc(-c2cnc3ccc(-c4ccoc4)nn23)c1 [Compound 335]
7. COc1ccc(-c2cnc3cnc(-c4ccc(N5CCN(C)CC5)cc4)cn23)cc1 [Compound 223]
8. COc1ccc(-c2cnc3ccc(-c4cnn(C)c4)nn23)cc1OC [Compound 391]

1. 4.48
2. 3.84
3. 2.45
4. 3.26
5. 2.95
6. 3.10
7. 3.72
8. 2.56

Provide reported log10 of IC50 for each item, in the same order as listed.
1. Oc1cccc(-c2cnc3ccc(NCc4cccs4)nn23)c1 [229_0146_0284]
2. COc1cccc(-c2cc(NC(C)=O)c3ncc(-c4cccc(C(C)=O)c4)n3c2)c1 [Compound 545]
3. COc1cc(-c2n[nH]c3nccc(-c4cccc(N)c4)c23)cc(OC)c1OC [Compound 537]
4. c1cc2cc(-c3cnc4ccc(NC5CCOCC5)nn34)ccc2[nH]1 [229_0242_0204]

[3.23, 3.48, 4.17, 3.07]

Looking for the measured log10 of IC50 of OCc1cccc(-c2ccnc3[nH]nc(-c4ccc5c(c4)OCO5)c23)c1 [Compound 527] , can you help?
3.49
